- Measurement target: T1, human Siglec-5 expressed on human primary cells (human, UniProt O15389 17-551)
- T1 construct: Endogenous receptor on human primary monocytes, dendritic cells, macrophages and neutrophils; also called CD170
- T1 sequence: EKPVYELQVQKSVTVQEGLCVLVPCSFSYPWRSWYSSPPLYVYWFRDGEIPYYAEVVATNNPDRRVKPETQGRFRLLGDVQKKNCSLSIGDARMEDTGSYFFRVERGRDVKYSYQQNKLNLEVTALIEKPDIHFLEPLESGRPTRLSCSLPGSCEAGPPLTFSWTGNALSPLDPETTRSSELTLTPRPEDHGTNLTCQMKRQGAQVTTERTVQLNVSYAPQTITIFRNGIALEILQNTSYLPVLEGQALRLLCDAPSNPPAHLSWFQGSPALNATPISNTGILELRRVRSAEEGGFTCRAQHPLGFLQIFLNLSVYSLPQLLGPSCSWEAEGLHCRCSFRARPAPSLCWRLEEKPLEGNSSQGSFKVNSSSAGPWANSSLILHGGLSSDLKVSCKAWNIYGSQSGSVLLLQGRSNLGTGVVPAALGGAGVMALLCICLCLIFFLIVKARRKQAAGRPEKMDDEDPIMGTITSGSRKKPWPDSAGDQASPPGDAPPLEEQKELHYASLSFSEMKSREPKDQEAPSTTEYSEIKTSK
- Method description: flow cytometry, human primary monocytes, 10 ug/ml mAb
Below, each of the binders is paired with its reported MFI value.
Please give only the number in your answer, with no unit.

Q. Quick check: MFI of anti-Siglec-5 monoclonal antibody 5H2 (antibody, IgG1, V domains shown) VH: EVQLQQSGPELVKPGASVKVSCKASGYSFTDYNMYWVKQSHGKSLEWIGYIDPYNGGTSYNQKFKGKATLTVDKSSSTAFMLLNSLTSEDSAVYYCALYYDYDGIPYWGQGTLVTVSA VL: DIVMTQSQKFMSTSVGDRVSVTCKASQNVGTNVAWYRQKPGQSPKALIYSASYRYNGVPDRFTGSGSGTDFTLTISNVQSEDLAEYFCQQYNSYPYTFGGGTKLEIK ?
A. 404

Q. Query: MFI; subject: anti-Siglec-5 monoclonal antibody 11C6 (antibody, IgG1, V domains shown, also called 1106) VH: QVQLQQSGAELVKPGASVKLSCKASGYTFTEYTIHWVKQRSGQGLEWIGWFYPGSGSIKYNEKFKDKATLTAVKSSSTVYMEFSRLTSEDSAVYFCARQDYDGLGFAYWGQGTLVTVSA VL: DVLMTQTPLSLPVSLGDQASISCRSSQTIVHSNGNTYLEWYLQKPGQSPKLLIYKVSNRFSGVPDRFSGSGSGTDFTLKISRVEAEDLGVYYCFQGSHVPWTFGGGTKLEIK
A. 386
